test system: Mucor spinosus IFO5317; assay: In vitro antifungal activity, serial agar dilution method (Table 1); type: cell-based; details: value in parentheses = Partial Inhibition; Sabouraud dextrose agar (pH 7.0); 28°C for 40 hours
readout_type: Partial Inhibition, Mucor spinosus IFO5317 (µg/mL)
Numbers only, in µg/mL.

[[record]]
molecular_string = "COc1cc(O)c2c(c1)C(=O)c1c(cc3c(c1O)-c1c(cc(C)c(C(=O)N[C@H](C)C(=O)O)c1O)[C@H](O[C@@H]1O[C@H](C)[C@H](N(C)C=O)[C@H](O[C@@H]4OC[C@@H](O)[C@H](O)[C@H]4O)[C@H]1O)[C@H]3O)C2=O"
recorded_value = 50.0


In the following, a different molecule is considered.
Report Partial Inhibition, Mucor spinosus IFO5317 for COc1cc(O)c2c(c1)C(=O)c1c(cc3c(c1O)-c1c(cc(C)c(C(=O)N[C@H](C)C(=O)O)c1O)[C@H](O[C@@H]1O[C@H](C)[C@H](N(C)C(=O)CCN)[C@H](O[C@@H]4OC[C@@H](O)[C@H](O)[C@H]4O)[C@H]1O)[C@H]3O)C2=O please.
25.0
